This listing pairs binders with measured EC50(nM), dual-luciferase reporter gene assay, iLite FGF21 assay ready cells.
Target: FGFR1c, P11362
Sequence (P11362 22-822): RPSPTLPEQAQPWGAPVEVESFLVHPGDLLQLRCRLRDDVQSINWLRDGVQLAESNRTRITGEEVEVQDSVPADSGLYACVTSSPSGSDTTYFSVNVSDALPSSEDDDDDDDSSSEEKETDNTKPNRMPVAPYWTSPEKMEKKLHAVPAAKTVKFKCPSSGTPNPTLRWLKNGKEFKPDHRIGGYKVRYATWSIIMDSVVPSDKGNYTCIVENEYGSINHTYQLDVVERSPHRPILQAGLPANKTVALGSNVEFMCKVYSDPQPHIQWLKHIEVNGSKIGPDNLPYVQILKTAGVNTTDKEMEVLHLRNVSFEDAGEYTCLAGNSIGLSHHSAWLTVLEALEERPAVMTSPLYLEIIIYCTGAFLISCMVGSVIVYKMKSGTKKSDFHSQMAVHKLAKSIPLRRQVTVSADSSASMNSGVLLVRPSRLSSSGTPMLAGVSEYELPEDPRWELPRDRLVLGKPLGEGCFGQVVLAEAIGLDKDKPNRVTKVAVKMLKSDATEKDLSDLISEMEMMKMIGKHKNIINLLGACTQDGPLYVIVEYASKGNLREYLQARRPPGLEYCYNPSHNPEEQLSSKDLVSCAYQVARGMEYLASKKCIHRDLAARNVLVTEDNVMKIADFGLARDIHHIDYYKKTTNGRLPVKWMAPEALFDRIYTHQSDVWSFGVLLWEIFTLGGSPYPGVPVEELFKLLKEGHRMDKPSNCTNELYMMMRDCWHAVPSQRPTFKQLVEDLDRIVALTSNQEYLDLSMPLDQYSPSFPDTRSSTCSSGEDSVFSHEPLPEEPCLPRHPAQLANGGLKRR
Experiment: cell-based or functional assay
propertyMeasured: EC50(nM), dual-luciferase reporter gene assay, iLite FGF21 assay ready cells

binder="Compound 5.3, Q9NSA1 29-209 (ligand, here or on the partner: Cys 46 (D46C) carries the albumin-binding agent of Example 2.1, C18 Dicarboxylic Acid-AEEA-gGlu-gGlu-Lys(bromoacetyl)-COOH (bromine displaced by the thiol)) HPIPDSSPLLQFGGQVRQRYLYTDDAQQTEAHLEIREDGTVGGAACQSPESLLQLKALKPGVIQILGVKTSRFLCQRPDGALYGSLHFDPEACSFRERLLEDGYNVYQSEAHGLPLHLPGNKSPHRDPAPRGPARFLPLPGLPPAPPEPPGILAPQPPDVGSSDPLSMVGGSQGRSPSYES" unitsofmeasure=nM observedresult=0.24
binder="Compound 5.2, Q9NSA1 29-209 (ligand, here or on the partner: Cys 38 (D38C) carries the albumin-binding agent of Example 2.1, C18 Dicarboxylic Acid-AEEA-gGlu-gGlu-Lys(bromoacetyl)-COOH (bromine displaced by the thiol)) HPIPDSSPLLQFGGQVRQRYLYTDDAQQTEAHLEIRECGTVGGAADQSPESLLQLKALKPGVIQILGVKTSRFLCQRPDGALYGSLHFDPEACSFRERLLEDGYNVYQSEAHGLPLHLPGNKSPHRDPAPRGPARFLPLPGLPPAPPEPPGILAPQPPDVGSSDPLSMVGGSQGRSPSYES" unitsofmeasure=nM observedresult=1.99
binder="Compound 5.8, Q9NSA1 29-209 (ligand, here or on the partner: Cys 122 (K122C) carries the albumin-binding agent of Example 2.2, C18 Dicarboxylic Acid-gGlu-AEEA-AEEA-Lys(bromoacetyl)-COOH (bromine displaced by the thiol)) HPIPDSSPLLQFGGQVRQRYLYTDDAQQTEAHLEIREDGTVGGAADQSPESLLQLKALKPGVIQILGVKTSRFLCQRPDGALYGSLHFDPEACSFRERLLEDGYNVYQSEAHGLPLHLPGNCSPHRDPAPRGPARFLPLPGLPPAPPEPPGILAPQPPDVGSSDPLSMVGGSQGRSPSYES" unitsofmeasure=nM observedresult=1.13

# credit: patent EP4700044A1
